These entries and their values trace back to patent US6303618A.

- tgt: CDK2 (Homo sapiens)
- method-description: CDK inhibition assay, CDK2
- Type: biochemical
- test-parameters: read-out: % inhibition CDK2, at 10 μM

# molecule, inhibition at 10 µM, %
records = [
    ("Nc1nc(N)c(N=O)c(OCC2CC=CCC2)n1 (centres unmarked) [NU6045]", 70),
    ("Nc1nc(OCC2COc3ccccc3O2)c2nc[nH]c2n1 (centres unmarked) [NU6026]", 12),
    ("Nc1cc(OCC2CCCCC2)nc(N)n1 [NU6034]", 7),
    ("Nc1nc(OCc2ccc3ccccc3c2)c2nc[nH]c2n1 [NU6018, 2-amino-6-(2-naphthyl)-methyloxypurine]", 9),
    ("Nc1nc(OCC23CC4CC(CC(C4)C2)C3)c2[nH]cnc2n1 [NU6014, 2-amino-6-adamantyl-methyloxypurine]", 20),
    ("C=C(C)[C@@H]1CC=C(COc2nc(N)nc3[nH]cnc23)CC1 [NU2077]", 16),
    ("Nc1nc(OCc2cccc3ccccc23)c2nc[nH]c2n1 [NU6020, 2-amino-6-(1-naphthyl)-methyloxypurine]", 3),
    ("Clc1nc(OCC2CCCCC2)c2[nH]cnc2n1 [NU6047, 2-chloro-6-cyclohexylmethoxypurine]", 5),
]

----------
// inhibition at 100 µM lookup, one value per entry
- tgt: CDK2 (Homo sapiens, UniProt P24941)
- method-description: CDK inhibition assay, CDK2
- Format: biochemical
- test-parameters: read-out: % inhibition CDK2, at 100 μM

# compound, inhibition at 100 µM [%]
measured = [
    ("c1nc(OCC2CCCCC2)c2[nH]cnc2n1", 61),
    ("Nc1nc(N)c(N=O)c(OCc2ccccc2)n1", 51),
    ("Nc1nc(OCC2CCCCO2)c2nc[nH]c2n1 (stereo not shown)", 44),
    ("Nc1nc(OCC2CCCO2)c2nc[nH]c2n1 (stereo not shown)", 39),
    ("Nc1nc(OCC2COc3ccccc3O2)c2nc[nH]c2n1 (stereo not shown)", 96),
    ("CO[C@@H]1O[C@H](COc2nc(N)nc3[nH]cnc23)[C@H]2OC(C)(C)O[C@@H]12", 16),
    ("Nc1nc(OCc2ccccc2)c2[nH]cnc2n1", 64),
    ("CC(C)C(=O)COc1nc(N)nc2nc[nH]c12", 33),
    ("CC1(C)O[C@H]2[C@@H](O1)[C@@H](COc1nc(N)nc3[nH]cnc13)O[C@@H]1OC(C)(C)O[C@@H]12", 3),
    ("C=C(COc1nc(N)nc2[nH]cnc12)c1ccccc1", 75),
    ("Nc1nc(OCCC2CCCCC2)c2[nH]cnc2n1", 58),
    ("CC1(C)OC[C@H](COc2nc(N)nc3[nH]cnc23)O1", 28),
    ("Nc1nc(N)c(N)c(OCC2CCCCC2)n1", 54),
    ("Nc1nc(OCC2COC3(CCCCC3)O2)c2nc[nH]c2n1 (stereo not shown)", 27),
    ("CC1(C)OCC(COc2nc(N)nc3[nH]cnc23)O1 (stereo not shown)", 35),
    ("Nc1nc(OCC2CC=CCC2)c2nc[nH]c2n1 (stereo not shown)", 87),
    ("Nc1nc(OC[C@@H]2CCC(=O)N2)c2nc[nH]c2n1", 20),
    ("Nc1cc(OCC2CC=CCC2)nc(N)n1 (stereo not shown)", 8),
    ("Nc1nc(OC[C@H]2CCC(=O)N2)c2nc[nH]c2n1", 37),
]

----------
- tgt: CDK1 (p34 cdc2)/cyclin B
- method-description: CDK inhibition assay (histone H1 kinase), CDK1
- test-parameters: CDK1; Table 1
pIC50: −log10 of the molar value.
Quick rule: pIC50 of at least 4 means satisfied, below that means not satisfied.

# compound, classification
data = [
    ("C=C(COc1nc(N)nc2[nH]cnc12)C(C)C [NU2055, O^6-(2-Isopropylallyl)guanine]", "satisfied"),
    ("COc1nc(N)nc2nc[nH]c12 [NU2004, 2-amino-6-methoxypurine]", "not satisfied"),
    ("CCCOc1nc(N)nc2nc[nH]c12 [NU2045, 2-amino-6-propoxypurine]", "satisfied"),
    ("C=CCCCCOc1nc(N)nc2[nH]cnc12 [NU2061, O^6-(5'-Hexenyl)guanine]", "satisfied"),
    ("C#CCOc1nc(N)nc2[nH]cnc12 [NU2031, O^6 -Propargylguanine]", "satisfied"),
]

----------
- tgt: CDK2 (Homo sapiens)
- method-description: CDK inhibition assay, CDK2
- Assay type: biochemical
- test-parameters: CDK2; Table 1; read-out: IC50 CDK2
pIC50: −log10 of the molar value.
Quick rule: pIC50 of at least 4 means 1, below that means 0.

# compound, classification
data = [
    ("c1nc(OCC2CCCCC2)c2[nH]cnc2n1 [NU2017, 6-cyclohexylmethoxypurine]", 1),
    ("Nc1nc(OCCC2CCCCC2)c2[nH]cnc2n1 [NU6023, 2-amino-6-cyclohexylethyloxypurine]", 1),
    ("Nc1nc(N)c(N=O)c(OCC2CC=CCC2)n1 (stereo not shown) [NU6045]", 1),
    ("Nc1nc(OCC2CCCO2)c2nc[nH]c2n1 (stereo not shown) [NU6013]", 0),
    ("C=C(COc1nc(N)nc2[nH]cnc12)c1ccccc1 [NU2042, O^6-(2-Phenylallyl)guanine]", 1),
    ("Nc1nc(OC[C@@H]2CCC(=O)N2)c2nc[nH]c2n1 [NU6031]", 0),
]

----------
- tgt: CDK1 (p34 cdc2)/cyclin B
- method-description: CDK inhibition assay (histone H1 kinase), CDK1
- test-parameters: CDK1; Table 1

# chemical-string, uom, qual, IC50
records = [
    ("c1ccc(CCOc2ncnc3nc[nH]c23)cc1", "µM", "=", 130),
    ("c1nc(OCC2CCCCC2)c2[nH]cnc2n1", "µM", "=", 16),
    ("CCCCCCCOc1nc(N)nc2nc[nH]c12", "µM", "=", 31),
    ("CCOC(C)(COc1nc(N)nc2[nH]cnc12)OCC", "µM", ">", 100),
    ("C=C(COc1nc(N)nc2[nH]cnc12)c1ccccc1", "µM", "=", 40),
    ("Nc1nc(OCC2=CCCCC2)c2nc[nH]c2n1", "µM", "=", 8),
    ("CC(C)C1(COc2nc(N)nc3[nH]cnc23)OCCO1", "µM", "=", 105),
    ("Nc1nc(OCCc2ccccc2)c2nc[nH]c2n1", "µM", "=", 100),
    ("C=C(CC)COc1nc(N)nc2[nH]cnc12", "µM", "=", 20),
    ("COC(COc1nc(N)nc2[nH]cnc12)(OC)c1ccccc1", "µM", ">", 100),
    ("C=CCOc1nc(N)nc2nc[nH]c12", "µM", "=", 50),
    ("Nc1nc(OCC(=O)c2ccccc2)c2nc[nH]c2n1", "µM", "=", 100),
    ("C=C(C)[C@@H]1CC=C(COc2nc(N)nc3[nH]cnc23)CC1", "µM", "=", 22),
    ("C=CCOc1nc(Cl)nc2nc[nH]c12", "µM", "=", 400),
    ("C=CCOc1nc(N)nc2c1ncn2CC=C", "µM", ">", 1000),
    ("c1ccc(COc2ncnc3nc[nH]c23)cc1", "µM", "=", 51),
    ("CCOc1nc(N)nc2nc[nH]c12", "µM", "=", 100),
    ("C=CCOc1ncnc2nc[nH]c12", "µM", "=", 110),
]

----------
- tgt: CDK1 (p34 cdc2)/cyclin B
- method-description: CDK inhibition assay (histone H1 kinase), CDK1
- Format: biochemical, starfish (Marthasterias glacialis)
- test-parameters: CDK1; Table 1
// log10 IC50 lookup, one value per entry
value-kind: log10 IC50 (log10 of the value in µM)

# compound, tgt, log10 IC50
data = [
    ("Nc1nc(OCC2CC=CCC2)c2nc[nH]c2n1 (centres unmarked) [NU2073, O^6-(3'-Cyclohexenyl)methylguanine]", "CDK1 (p34 cdc2)/cyclin B", 0.51),
    ("Nc1nc(OCc2ccccc2)c2[nH]cnc2n1 [NU2005, 2-amino-6-benzyloxypurine]", "CDK1 (p34 cdc2)/cyclin B", 1.54),
    ("CCCCOc1nc(N)nc2nc[nH]c12 [NU2052, 2-amino-6-n-butoxypurine]", "CDK1 (p34 cdc2)/cyclin B", 1.48),
    ("C=C(C)COc1nc(N)nc2[nH]cnc12 [NU2034, O^6-(2-Methylallyl)guanine]", "CDK1 (p34 cdc2)/cyclin B", 1.51),
    ("Nc1nc(OCC2CCCC2)c2nc[nH]c2n1 [NU2068, O^6 -(Cyclopentyl)methylguanine]", "CDK1 (p34 cdc2)/cyclin B", 1.48),
    ("CC(C)CCOc1nc(N)nc2nc[nH]c12 [NU2053, O^6-(3'-Methyl)butylguanine]", "CDK1 (p34 cdc2)/cyclin B", 1.26),
]
